Molecular target: RARα (Homo sapiens, UniProt P10276)
Construct: gal4 (fusion partner); expressed in transfected cells; host or cells: COS-7
Sequence (P10276 183-417 limits assumed): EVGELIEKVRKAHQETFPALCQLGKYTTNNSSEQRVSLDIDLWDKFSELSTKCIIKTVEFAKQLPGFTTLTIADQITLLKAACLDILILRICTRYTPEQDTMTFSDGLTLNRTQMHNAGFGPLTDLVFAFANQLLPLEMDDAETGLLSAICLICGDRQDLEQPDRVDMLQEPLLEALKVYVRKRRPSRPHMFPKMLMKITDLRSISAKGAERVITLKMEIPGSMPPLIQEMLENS
Assay: Transactivation assay for RAR alpha (gal4-RAR fusion, luciferase reporter, COS-7 cells)
Type: cell-based
Settings: ratio of test compound EC50 to that of atRA on the same plate
MEASURE: RARα activity ratio
# respond with the number and nothing more

Examples from the recorded data:
INSERT INTO measurements (molecule, observed_value) VALUES
  ('CCOc1c(Cl)cc(C(=O)Nc2ccc(C(=O)O)c(O)c2)cc1Cl [AAA-057]', 33),
  ('CCOc1c(Cl)cc(C(=O)Nc2ccc(C(=O)O)c(F)c2)cc1OC(C)C [AAA-079]', 1.1),
  ('Cc1cc(NC(=O)c2cc(Cl)c(OC(C)C)c(OC(C)C)c2)ccc1C(=O)O [AAA-051]', 0.97);

Ask: Which value of RARα activity ratio has been reported for CCC(CC)Oc1cc(C(=O)Nc2ccc(C(=O)O)c(F)c2)cc(Cl)c1OC [AAA-103] in the records?
Result: 2.6

Ask: Which value of RARα activity ratio has been reported for CCOc1c(Cl)cc(C(=O)Nc2ccc(C(=O)O)c(O)c2)cc1OCC1CC1 [AAA-090] in the records?
Result: 5.0

Ask: Which value of RARα activity ratio has been reported for CCOc1c(Br)cc(NC(=O)c2ccc(C(=O)O)cc2)cc1Br [AAA-014] in the records?
Result: 58

Ask: Which value of RARα activity ratio has been reported for COc1c(Cl)cc(C(=O)Nc2ccc(C(=O)O)cc2)cc1OCC(C)(C)C [AAA-105] in the records?
Result: 0.66

Ask: Which value of RARα activity ratio has been reported for CC(C)(C)Oc1cc(C(=O)Nc2ccc(C(=O)O)cc2)cc(OC(C)(C)C)c1OC(C)(C)C [AAA-060] in the records?
Result: 45

Ask: Which value of RARα activity ratio has been reported for Cc1cc(NC(=O)c2cc(F)c(OC(C)C)c(Cl)c2)ccc1C(=O)O [AAA-074] in the records?
Result: 154

###

Molecular target: RARα (Homo sapiens, UniProt P10276)
Construct: gal4 (fusion partner); expressed in transfected cells; host or cells: COS-7
Assay: Transactivation assay for RAR alpha (gal4-RAR fusion, luciferase reporter, COS-7 cells)
Format: cell-based
Details: ratio of test compound EC50 to that of atRA on the same plate
Lab note: compare RARα activity ratio against 5. Equal or greater, write Met. Smaller, write Not met.

Solved cases (5 shown):
INSERT INTO measurements (compound, group_label) VALUES
  ('CCOc1c(Cl)cc(C(=O)Nc2ccc(C(=O)O)nn2)cc1OC(C)C [AAA-082]', 'Met'),
  ('CCOc1c(OC2CCCC2)cc(C(=O)Nc2ccc(C(=O)O)cc2)cc1OC1CCCC1 [AAA-058]', 'Met'),
  ('COc1c(Cl)cc(C(=O)Nc2ccc(C(=O)O)c(F)c2)cc1OC1CCC1 [AAA-100]', 'Met'),
  ('Cc1cc(NC(=O)c2cc(Cl)c(OC3CCCC3)c(Cl)c2)ccc1C(=O)O [AAA-054]', 'Not met'),
  ('CCOc1c(Cl)cc(C(=O)Nc2ccc(C(=O)O)c(O)c2)cc1OC(C)C [AAA-081]', 'Met');

Ask: Decide: RARα activity ratio of CCOc1c(Cl)cc(C(=O)Nc2ccc(C(=O)O)c(C)c2)cc1OC [AAA-085] >= 5?
Result: Met

Ask: Decide: RARα activity ratio of Cc1cc(NC(=O)c2cc(Br)c(OC(C)C)c(Br)c2)ccc1C(=O)O [AAA-052] >= 5?
Result: Not met

Ask: Decide: RARα activity ratio of CCOc1c(Br)cc(C(=O)Nc2ccc(C(=O)O)cc2)cc1C(F)(F)F [AAA-042] >= 5?
Result: Met

Ask: Decide: RARα activity ratio of CCOc1c(Cl)cc(C(=O)Nc2ccc(C(=O)O)c(C)c2)cc1C(F)(F)F [AAA-039] >= 5?
Result: Not met

Ask: Decide: RARα activity ratio of CCOc1c(Cl)cc(C(=O)Nc2ccc(C(N)=O)cc2)cc1Cl [AAA-016] >= 5?
Result: Met

Ask: Decide: RARα activity ratio of Cc1cc(NC(=O)c2cc(Cl)c(OC3CCC3)c(OC3CCC3)c2)ccc1C(=O)O [AAA-093] >= 5?
Result: Not met

Ask: Decide: RARα activity ratio of CC(C)Oc1cc(C(=O)Nc2ccc(C(=O)O)cc2)cc(OC(C)C)c1F [AAA-119] >= 5?
Result: Met

Ask: Decide: RARα activity ratio of CCOc1cc(C(=O)Nc2ccc(C(=O)O)c(C)c2)cc(OC(CC)CC)c1Cl [AAA-115] >= 5?
Result: Not met

Ask: Decide: RARα activity ratio of CCC(CC)Oc1cc(C(=O)Nc2ccc(C(=O)O)c(C)c2)cc(Cl)c1OC [AAA-102] >= 5?
Result: Not met

###

Target: RARγ (Homo sapiens, UniProt P13631)
Construct: gal4 (fusion partner); expressed in transfected cells; host or cells: COS-7
Sequence (P13631 185-419 limits assumed): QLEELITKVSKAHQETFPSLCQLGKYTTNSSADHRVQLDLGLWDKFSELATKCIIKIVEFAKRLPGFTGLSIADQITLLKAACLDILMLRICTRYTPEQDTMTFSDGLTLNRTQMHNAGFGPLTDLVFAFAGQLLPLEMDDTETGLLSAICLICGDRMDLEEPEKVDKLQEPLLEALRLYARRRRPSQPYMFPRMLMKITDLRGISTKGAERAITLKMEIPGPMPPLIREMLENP
Assay: Transactivation assay for RAR gamma (gal4-RAR fusion, luciferase reporter, COS-7 cells)
Type: cell-based
Conditions: ratio of test compound EC50 to that of atRA; inactive = no agonist action at the highest concentration tested
Lab note: compare RARγ activity ratio against 6000. Equal or greater, write True. Smaller, write False.

INSERT INTO assay_data (compound, target_desc, group_label) VALUES
  ('O=C(O)c1ccc(NC(=O)c2cc(Cl)c(OC3CCC3)c(Cl)c2)cc1 [AAA-011]', 'RARγ (Homo sapiens, UniProt P13631)', 'True'),
  ('CCOc1c(Cl)cc(C(=O)Nc2ccc(C(=O)O)c(F)c2)cc1OC(C)C [AAA-079]', 'RARγ (Homo sapiens, UniProt P13631)', 'True'),
  ('Cc1cc(NC(=O)c2cc(Cl)c(OC(C)C)c(C(F)(F)F)c2)ccc1C(=O)O [AAA-040]', 'RARγ (Homo sapiens, UniProt P13631)', 'False');

Ask: Decide: RARγ activity ratio of CCOc1cc(C(=O)Nc2ccc(C(=O)O)c(C)c2)cc(OCC)c1Br [AAA-110] >= 6000?
Result: True

Ask: Decide: RARγ activity ratio of CCOc1c(Cl)cc(C(=O)Nc2ccc(C(=O)O)cc2)cc1OCC1CC1 [AAA-089] >= 6000?
Result: False

Ask: Decide: RARγ activity ratio of O=C(O)c1ccc(NC(=O)c2cc(Cl)c(OC3CCCCC3)c(OC3CCCCC3)c2)cc1 [AAA-047] >= 6000?
Result: False

###

Target: RARα (Homo sapiens)
Construct: gal4 (fusion partner); expressed in transfected cells; host or cells: COS-7
Experiment: Transactivation assay for RAR alpha (gal4-RAR fusion, luciferase reporter, COS-7 cells)
Type: cell-based
Settings: fold-selectivity for RARα over RARβ
MEASURE: RARα/RARβ ratio (*)
# respond with the number and nothing more

Examples from the recorded data:
INSERT INTO measurements (smiles_code, measure, observed_value) VALUES
  ('CCC(CC)Oc1cc(C(=O)Nc2ccc(C(=O)O)c(C)c2)cc(Cl)c1OC', 'RARα/RARβ ratio (*)', 33),
  ('CCOc1c(Cl)cc(C(=O)Nc2ccc(C(=O)O)nn2)cc1OC(C)C', 'RARα/RARβ ratio (*)', 275),
  ('CCOc1cc(C(=O)Nc2ccc(C(=O)O)c(C)c2)cc(Cl)c1OC(C)C', 'RARα/RARβ ratio (*)', 286),
  ('Cc1cc(NC(=O)c2cc(Cl)c(OC(C)(C)C)c(OC(C)(C)C)c2)ccc1C(=O)O', 'RARα/RARβ ratio (*)', 13200);

Then there is this compound:
Ask: Which value of RARα/RARβ ratio (*) has been reported for `COc1c(Cl)cc(C(=O)Nc2ccc(C(=O)O)c(C)c2)cc1C(F)(F)F` in the records?
Result: 44
